Ref: PubChem BioAssay AID588499

system: Botulinum neurotoxin type A light chain protease (Clostridium botulinum A str. ATCC 3502); assay: BoNT/A light chain protease inhibitors, primary screen, biochemical, flow cytometry, MLPCN library (AID 588499); details: multiplex microsphere protease substrate cleavage, at 10 µM, stronger effect = higher value; further: plate controls were buffer without enzyme for full effect and enzyme alone for no effect
Hit rate of the full screen: of about 360,000 compounds, about 610 (0.17%) were called active. Inconclusive results (about 2%) are left out. Shown is part of a subset that was picked to be rich in actives.
endpoint: inhibition (%)
Numbers only, in %.

Query the reported inhibition for Botulinum neurotoxin type A light chain protease (Clostridium botulinum A str. ATCC 3502); item: CCOc1ccccc1NC(=O)C1CCCN(C(=O)Nc2ccccc2)C1 (stereo not drawn) 0

Query the reported inhibition for Botulinum neurotoxin type A light chain protease (Clostridium botulinum A str. ATCC 3502); item: "COc1ccc(CCNC(=S)N2CCN(S(=O)(=O)c3ccc(F)cc3)CC2)cc1" 0.6

Query the reported inhibition for Botulinum neurotoxin type A light chain protease (Clostridium botulinum A str. ATCC 3502); item: "Cc1cccc(N(CC(=O)Nc2ccc(-c3nc4ccc(C)cc4s3)cc2)S(C)(=O)=O)c1" -0.9

Query the reported inhibition for Botulinum neurotoxin type A light chain protease (Clostridium botulinum A str. ATCC 3502); item: "CN(C(=O)CSc1nnc(-c2n[nH]c3ccccc23)o1)c1ccccc1" 0.1

Query the reported inhibition for Botulinum neurotoxin type A light chain protease (Clostridium botulinum A str. ATCC 3502); item: "O=C(CN1C(=O)c2ccc([N+](=O)[O-])cc2C1=O)Nc1nnc(C2CC2)s1" -0.6

Query the reported inhibition for Botulinum neurotoxin type A light chain protease (Clostridium botulinum A str. ATCC 3502); item: "COc1ccc(-c2[nH][nH]c(=O)c2NC(=O)c2ccc([N+](=O)[O-])cc2)cc1" 0.1

Query the reported inhibition for Botulinum neurotoxin type A light chain protease (Clostridium botulinum A str. ATCC 3502); item: "O=C(c1cccc(-n2cccc2)c1)N1CCN(S(=O)(=O)c2ccc(F)cc2)CC1" -0.8

Query the reported inhibition for Botulinum neurotoxin type A light chain protease (Clostridium botulinum A str. ATCC 3502); item: "CCCN(C(=O)CSc1nnnn1C)c1c(N)n(Cc2ccccc2)c(=O)[nH]c1=O" -0.4

For every item below, please supply its inhibition.
1. CCc1nnc(NC(=O)CSc2nc3ccccc3c(=O)n2CCCOC)s1
2. CCCn1c(=NC(C)=O)c(C(=O)OCC)cc2c(=O)n3ccccc3nc21
3. CC(C)(C)CC(=O)Nc1nc(C(N)Cc2ccc(C(F)(F)F)cc2)cs1 (stereo not drawn)
4. COc1cc(C(=O)NCc2cc3cc(Cl)ccc3n2C)cc(OC)c1OC
5. COc1ccc(C(=O)Nc2nc(-c3ccc(OC)cc3)c(-c3ccc([N+](=O)[O-])cc3)s2)cc1
6. CC(=O)Nc1cccc(Nc2ccc(C#N)cc2)c1
7. COc1cc(OC)c(-n2cc(-c3ccc(Cl)cc3)[nH]c2=O)cc1Cl

1. 0.5
2. 0.6
3. -0.5
4. 0.3
5. 40.2
6. 0
7. 0.1

----------
For each entry below, report its inhibition value.
tested on: Botulinum neurotoxin type A light chain protease (Clostridium botulinum A str. ATCC 3502); assay: BoNT/A light chain protease inhibitors, primary screen, biochemical, flow cytometry, MLPCN library (AID 588499); conditions: multiplex microsphere protease substrate cleavage, at 10 µM, stronger effect = higher value; further: plate controls were buffer without enzyme for full effect and enzyme alone for no effect
Screen size: about 360,000 compounds; about 610 (0.17%) were called active. About 2% were inconclusive and are not listed. The sample as a whole holds a higher share of actives than the screen did.
Give bare numbers, in %.

// worked examples, inhibition included
Consider the molecule shown here: "CCN1/C(=C\c2ccc3ccccc3[n+]2CC)Sc2cc(C)ccc21" What is its recorded inhibition? 71.1

Consider the molecule shown here: "C[C@@H]1CN([C@@H](C)CO)C(=O)CCCn2nncc2CO[C@@H]1CN(C)S(=O)(=O)c1ccc(-c2ccccc2)cc1" What is its recorded inhibition? -0.4

Consider the molecule shown here: "CCOC(=O)C1CCN(C(=O)CN2C(=O)c3cccnc3Oc3ccc(C)cc32)CC1" What is its recorded inhibition? -1

Consider the molecule shown here: "Cc1onc(-c2ccccc2Cl)c1C(=O)N(Cc1ccc(N(C)C)cc1)C(C)C" What is its recorded inhibition? -3.2

Consider the molecule shown here: "Oc1cccc(CCc2ccccn2)c1" What is its recorded inhibition? -0.4

Consider the molecule shown here: "COC(=O)[C@]12CCCCC=C1N(CCC1=CCCCC1)C(=O)[C@H](CC(=O)NCC1CCCCC1)C2" What is its recorded inhibition? 0

Consider the molecule shown here: "COc1ccc(NC(=O)c2sc(=O)n(Cc3ccc(S(=O)(=O)N(C)C)cc3)c2C)cc1" What is its recorded inhibition? -0.2

Consider the molecule shown here: COc1ccc(C(=O)NC(Cc2ccc(OC(=O)c3ccc(OC)cc3)cc2)C(=O)O)cc1 (configuration not stated) What is its recorded inhibition? 0.4

For every item below, please supply its inhibition.
1. Cc1cc(-c2nnc(CCC(=O)NC(c3ccccc3)c3ccccc3)o2)no1
2. CCNC(=S)N1CCN(c2ncccn2)CC1
3. COC(=O)c1c(NC(=O)COC(=O)[C@@H](NS(=O)(=O)c2ccccc2)C(C)C)sc2c1CCC2
4. C=C1C(=O)[C@]23C[C@H]1CCC2[C@@]1(C)C(C[C@@H]3O)[C@](C)(C(=O)O)CC[C@@H]1O (some centres not stated)

[0.3, 1.2, -0.3, 0.1]

For every item below, please supply its inhibition.
1. COc1cccc(C=CC(=O)C=CC=Cc2ccccc2)c1
2. CCc1[nH]nc(C(=O)N2CCCC(CO)(Cc3ccc(F)cc3F)C2)c1C (configuration not stated)
3. CC(=O)Nc1ccc(-c2ccnc3c2CC(C(=O)NC(C)C)O3)cc1 (configuration not stated)
4. Cc1ccc2cc(CCNC(=O)c3c(-c4ccccc4Cl)noc3C)c(=O)[nH]c2c1

1. 0.9
2. 0.2
3. 0.1
4. -0.3

----------
test system: Botulinum neurotoxin type A light chain protease (Clostridium botulinum A str. ATCC 3502); test: BoNT/A light chain protease inhibitors, primary screen, biochemical, flow cytometry, MLPCN library (AID 588499); settings: multiplex microsphere protease substrate cleavage, at 10 µM; further: plate controls were buffer without enzyme for full effect and enzyme alone for no effect
Screen size: about 360,000 compounds; about 610 (0.17%) were called active. Inconclusive results (about 2%) are left out. Rule as the data show it: active = inhibition above about 30%; inconclusive = no clear call, values can overlap the other calls; inactive = below that. Only a selection was taken, and actives are over-represented in it overall.
Your response should consist of one outcome taken from label 1 for active, label 0 for inactive

Record excerpt, results attached:
What did the test return for COc1ccc(C2CC(c3cccs3)=NN2C(=O)CSc2nnc(N)s2)cc1OC (stereo not given) ? label 0

What did the test return for COc1ccc(C2CC(c3cccs3)=NN2c2nc(C)c(C(C)=O)s2)cc1OC (stereo not given) ? label 1

What did the test return for "Cc1nn(-c2ccc(F)cc2)c(Cl)c1/C=C(/CCC(=O)O)c1nc2ccccc2s1" ? label 0

What did the test return for "CC1=CC(=C(C#N)c2nc3ccccc3s2)C=C(C)N1c1ccc(F)cc1F" ? label 1

Now let's try a different one.
What did the test return for "Cc1ccc(C(=O)NCC(=O)OCC(=O)Nc2cccc(S(=O)(=O)N3CCCC3)c2)cc1C" ? label 0

----------
test system: Botulinum neurotoxin type A light chain protease (Clostridium botulinum A str. ATCC 3502); test: BoNT/A light chain protease inhibitors, primary screen, biochemical, flow cytometry, MLPCN library (AID 588499); details: multiplex microsphere protease substrate cleavage, at 10 µM, stronger effect = higher value; further: plate controls were buffer without enzyme for full effect and enzyme alone for no effect
The whole screen tested about 360,000 compounds, of which about 610 (0.17%) were called active. Inconclusive results (about 2%) are left out. The full list was thinned out, with actives kept by preference.
endpoint: inhibition (%)
One number for each entry, in %.

// worked examples, inhibition included
Consider the compound shown here: COc1ccc(C(c2nnnn2Cc2cccs2)N2CCN(c3ccccc3)CC2)cc1OC (stereo unspecified) What is its recorded inhibition? -0.3

Consider the compound shown here: "CCOCCCNC(=O)c1cn(CC(C)C)c(=O)c2c1c1ccccc1n2C" What is its recorded inhibition? 2.4

Consider the compound shown here: O=C(O)C(c1ccccc1)N1C(=O)/C(=C\c2ccc(-c3cccc(Cl)c3)o2)SC1=S (stereo unspecified) What is its recorded inhibition? 39.3

Consider the compound shown here: COc1ccc(NC(=O)N2CCCC(C(=O)Nc3ccccc3OC)C2)cc1 (stereo unspecified) What is its recorded inhibition? -1.6

Consider the compound shown here: "Oc1c(Cl)cc(Cl)c(Cl)c1Cc1c(O)c(Cl)cc(Cl)c1Cl" What is its recorded inhibition? -1

For every item below, please supply its inhibition.
1. Cc1cc(Br)ccc1NC(=O)CCCOc1cc(=O)n(C)c2ccccc12
2. CCCCN1C(=O)C(CC(=O)NCc2cccs2)CC(C(=O)N2CCCCCC2)=C1C (stereo unspecified)
3. CCOc1ccc(-n2c(SCC(=O)OC)nc3sc4c(c3c2=O)CCN(C)C4)cc1
4. O=C(CSc1nncn1-c1cccnc1)N1CCOCC1

1. 0
2. 0
3. 26.5
4. -0.7

For every item below, please supply its inhibition.
1. CCN(CC)C(=O)Oc1ccc(Br)cc1C(=O)Nc1ccc(F)c(Cl)c1
2. CC(C(=O)NC1CCS(=O)(=O)C1)N1C(=O)/C(=C/c2ccc(Cl)cc2)SC1=S (stereo unspecified)
3. CCN(CC)C(=O)C(C)N1c2cccc3cccc(c23)S1(=O)=O (stereo unspecified)
4. Cc1cc2ccccc2n1CCNC(=O)COc1ccc2ccccc2c1
5. O=C(Nc1ccc2c(c1)[C@@H]1C[C@@H](CC(=O)N3CCCCC3)O[C@@H](CO)[C@@H]1O2)NC1CCCCC1
6. COCCNC(=O)COc1ccc(N(C)S(=O)(=O)c2ccc3ccccc3c2)cc1
7. CCSc1nc2sc3c(c2c(=O)n1-c1ccc(C)cc1)CCN(C)C3
8. CC(C)c1nc(CNC(=O)CC2C(=O)NCCN2Cc2cccc(F)c2F)cs1 (stereo unspecified)

1: -0.8; 2: 2.3; 3: 0.5; 4: 61.4; 5: 0.1; 6: -1.4; 7: 9.9; 8: 0

For every item below, please supply its inhibition.
1. CC(C)CN(C(=O)CN1CCN(S(=O)(=O)c2ccccc2)CC1)c1c(N)n(CC(C)C)c(=O)[nH]c1=O
2. CN1C(=O)/C(=C\c2ccc(-c3ccccc3)o2)SC1=S
3. CC(C(=O)Nc1ccc(O)c(C(=O)O)c1)N1C(=O)/C(=C/c2cccs2)SC1=S (stereo unspecified)
4. COc1ccc(-c2cc3c(c4c2ccn4C)C2CCC3C2)cn1 (stereo unspecified)

1. -2.5
2. 66.9
3. 2
4. 52.1
